For each of the compounds below, state its inhibition in vivo at 2 mg/kg.
- Tested on: acid secretion in pylorus-ligated rats
- TEST_SUMMARY: Anti-secretory effect (histamine-stimulated gastric acid secretion) in pylorus-ligated rat
- Format: in vivo, male wistar rats
- TEST_SETTINGS: Rattus norvegicus, sc, 3 h; 2 mg/kg s.c., 30 min before histamine 3 mg/kg s.c.; n=5; * significant at 5%, ** at 1% vs control; read-out: inhibitory effect of acid secretion (%) at 2 mg/kg s.c.
Give bare numbers, in %.

// worked examples, inhibition in vivo at 2 mg/kg included
CN(C)Cc1nc2cc(CSCCNc3nccc(=O)[nH]3)ccc2[nH]1; 53
CNC(=NC#N)NCCCOc1ccc2[nH]c(CN3CCCCC3)nc2c1; 65

Enter reported inhibition in vivo at 2 mg/kg observed with acid secretion in pylorus-ligated rats for `CN(C)Cc1nc2cc(CSCCC(N)=NS(N)(=O)=O)ccc2[nH]1`
76

---

- System: acid secretion in pylorus-ligated rats
- TEST_SUMMARY: Anti-secretory effect (histamine-stimulated gastric acid secretion) in pylorus-ligated rat
- Type: in vivo, male wistar rats
- TEST_SETTINGS: Rattus norvegicus, sc, 3 h; 2 mg/kg s.c., 30 min before histamine 3 mg/kg s.c.; n=5; * significant at 5%, ** at 1% vs control; read-out: inhibitory effect of acid secretion (%) at 2 mg/kg s.c.
Outcome label depends on inhibition in vivo at 2 mg/kg relative to 90%: at/above gives true (1), below gives false (0).

Examples from the recorded data:
CN(C)Cc1nc2cc(CSCCC(N)=NC(N)=O)ccc2[nH]1; false (0)
O=c1[nH]c(NCCCOc2ccc3[nH]c(CN4CCCCC4)nc3c2)nnc1Cc1cccnc1; false (0)
C#CCNC(=C[N+](=O)[O-])NCCSCc1ccc2[nH]c(CN(C)C)nc2c1; false (0)
CN(C)Cc1cnc(NCCCOc2ccc3[nH]c(CN4CCCCC4)nc3c2)[nH]c1=O; false (0)
CCNc1n[s+]([O-])nc1NCCCSc1ccc2[nH]c(NC(=N)N)nc2c1 (centres unmarked); false (0)
CNC(=C[N+](=O)[O-])NCCOc1ccc2[nH]c(CN3CCCC3)nc2c1; true (1)

Identify whether the reported inhibition in vivo at 2 mg/kg of the following compound is 90% or greater: `CN(C)Cc1cccc(Cc2cnc(NCCCOc3ccc4[nH]c(CN(C)C)nc4c3)[nH]c2=O)c1`
true (1)

Again, but for `CN(C)Cc1nc2cc(OCCCNc3ncc(Cc4cccnc4)c(=O)[nH]3)ccc2[nH]1`
true (1)

Can you handle `CN(C)Cc1nc2cc(CSCCNc3nnc(Cc4cccnc4)c(=O)[nH]3)ccc2[nH]1` next?
false (0)

---

Would you mind telling me the reported inhibition in vivo at 2 mg/kg of each entry?
- Test system: acid secretion in pylorus-ligated rats
- TEST_SUMMARY: Anti-secretory effect (histamine-stimulated gastric acid secretion) in pylorus-ligated rat
- Format: in vivo, male wistar rats
- TEST_SETTINGS: Rattus norvegicus, sc, 3 h; 2 mg/kg s.c., 30 min before histamine 3 mg/kg s.c.; n=5; * significant at 5%, ** at 1% vs control; read-out: inhibitory effect of acid secretion (%) at 2 mg/kg s.c.
Could you kindly put the unit after your number?

// known answers, use as guide
O=c1ccnc(NCCCOc2ccc3[nH]c(CN4CCCCC4)nc3c2)[nH]1; 74%
CN(C)Cc1nc2cc(CSCCNc3nc(N)nn3C)ccc2[nH]1; 76%
CN(C)Cc1nc2cc(CSCCCC(N)=NS(N)(=O)=O)ccc2[nH]1; 32%
CCNc1n[s+]([O-])nc1NCCCOc1ccc2[nH]c(CN(C)C)nc2c1 (stereo not drawn); 68%
CN(C)Cc1cccc(Cc2cnc(NCCSCc3ccc4[nH]c(CN(C)C)nc4c3)[nH]c2=O)c1; 107%

Field: inhibition in vivo at 2 mg/kg. Fill in for each record below.
1. CNC(=C[N+](=O)[O-])NCCCOc1ccc2[nH]c(CN(C)C)nc2c1
2. CN(C)Cc1nc2cc(CSCCNC(N)=NS(=O)(=O)c3ccccc3)ccc2[nH]1
3. CN(C)Cc1nc2cc(CSCCNC(N)=NC#N)ccc2[nH]1
4. CNC(=C[N+](=O)[O-])NCCCOc1ccc2[nH]c(CN3CCCC3)nc2c1

1. 73%
2. 72%
3. 52%
4. 64%
